Values from PubChem BioAssay AID192

# Test system: BDF1 mice, B16 melanoma ip, median survival T/C
# procedure-details: NCI In Vivo Anticancer Drug Screen. Data for tumor model B16 Melanoma (intraperitoneal) in B6D2F1 (BDF1) mice
# setup-conditions: endpoint: median survival time; dose: 100.0 mg/kg/injection; schedule: Q04DX003 (ip); vehicle: saline with Tween-80; higher = longer survival
Inconclusive results and toxic doses are left out.
List of T/C values.

| compound | T/C |
| --- | --- |
| Cc1ccc(S(=O)(=O)N(C)C)cc1N | 100 % of control |
| C/C=C(/C#N)c1ccccc1 | 97 % of control |
| CCOC(=O)C(=CN1CCCC1)C(=O)OCC | 120 % of control |
| CCN(CC)S(=O)(=O)c1ccc(OC)c(N)c1 | 104 % of control |
| Cc1ccc2cc3c(ccc4ccccc43)c3c2c1CC3 | 110 % of control |
| CSCCC(C)C | 97 % of control |
| CC(=O)OC1C2CCC(C2)C1C (stereo unspecified) | 105 % of control |
| O=C(O)CCC(=O)Nc1ccccc1C(F)(F)F | 108 % of control |
| Cc1cc(O)c(C)c(C)c1Cl | 95 % of control |
| CC(C)C1=CC2=CCC3C(C)(C(N)=O)CCCC3(C)C2CC1CC#N (stereo unspecified) | 102 % of control |
| OC(Cc1cnc2ccccc2n1)(C(F)(F)F)C(F)(F)F | 105 % of control |
| C=CCNC(=O)/C=C/C(=O)NCC=C | 121 % of control |
| BrCc1ccc2c3c(ccc(CBr)c13)CC2 | 107 % of control |
| O=C(O)C1=CCC=CC1 | 100 % of control |
| NC(=S)N/N=C/c1ccc2c(c1)OCO2 | 106 % of control |
| CCc1c(CC(=O)O)c2cc(C)ccc2n1Cc1ccc(Cl)cc1 | 88 % of control |

###

# System: BDF1 mice, B16 melanoma ip, median survival T/C
# procedure-details: NCI In Vivo Anticancer Drug Screen. Data for tumor model B16 Melanoma (intraperitoneal) in B6D2F1 (BDF1) mice
# setup-conditions: endpoint: median survival time; dose: 0.78 mg/kg/injection; schedule: Q01DX009 (ip); vehicle: Klucel (hydroxypropylcellulose) (HPC); higher = longer survival
Inconclusive results and toxic doses are left out.
Known T/C of a selection of compounds

| compound | T/C |
| --- | --- |
| O=C1CN=C(c2ccccc2Cl)c2cc(Cl)ccc2N1 | 88 % of control |
| O=C(CCCN1CCC(O)(c2cccc(C(F)(F)F)c2)CC1)c1ccc(F)cc1 | 105 % of control |
| CN1C(=O)CCS(=O)(=O)C1c1ccc(Cl)c(Cl)c1 (configuration not stated) | 87 % of control |
| CC(Cc1ccccc1)NC(=O)CCNNC(=O)c1ccncc1 (configuration not stated) | 87 % of control |
| COc1c(I)c2c(c(OC)c1OC)-c1ccc(OC)c(=O)cc1C(NC(C)=O)CC2 (configuration not stated) | 104 % of control |
| COc1ccc2c(c1OC)C13CCCCC1C(C2)[N+](C)(C)CC3 (configuration not stated) | 87 % of control |
| N=C(N)c1nn(C2OC(CO)C(O)C2O)c2ncnc(N)c12 (configuration not stated) | 97 % of control |
